- system-tested: Cyclin-dependent kinase 2/cyclin E (Homo sapiens) (UniProt P24864+P24941+O96020)
- protocol-notes: Inhibition of CDK2/cyclin E (unknown origin) at 1 uM incubated for 30 to 60 mins presence of dithiothreitol by Cheng-Prusoff equation analysis relative to control
- Type: protein-complex assay
- assay-conditions: time 30-60 min
inhibition: recorded values
measured-parameter: inhibition

Cn1cc(-c2nc(Nc3cccc(Cl)c3)ncc2F)cn1 : 57%
Cn1cc(-c2nc(Nc3ccc(S(=O)(=O)C(F)(F)F)cc3)ncc2F)cn1 : 15%
Cn1cc(-c2cc(N)nc(Nc3cccc(S(N)(=O)=O)c3)n2)cn1 : 13%
Cn1cc(-c2nc(Nc3ccc(F)c(C(F)(F)F)c3)ncc2F)cn1 : 1%
Cn1cc(-c2nc(Nc3cccc(S(=O)(=O)C(F)(F)F)c3)ncc2F)cn1 : 1%
Cn1cc(-c2nc(Nc3cccc(S(=O)(=O)C(F)(F)F)c3)ncc2Cl)cn1 : 53%
Nc1cc(-c2cnn(Cc3ccccc3)c2)nc(Nc2cccc(S(N)(=O)=O)c2)n1 : 53%
Cn1cc(-c2nc(Nc3ccc(C(F)(F)F)c(Cl)c3)ncc2F)cn1 : 10%
Cn1cc(-c2nc(Nc3cccc([N+](=O)[O-])c3)ncc2Cl)cn1 : 48%
